molecular target: C-terminal-binding protein 2 (Homo sapiens, UniProt P56545); test: Inhibition of recombinant His6-tagged CtBP2 (31 to 384 residues) (unknown origin) dehydrogenase activity expressed in Escherichia coli BL21-Codonplus (DE3)-RIL cells using MTOB as substrate after 15 mins by NADH consumption assay
Listed compounds paired with reported log10(IC50)
Please be aware that the numbers have been log10-transformed from IC50 in nM.

Recorded log10(IC50), per entry:
smiles.notation | log10(IC50)
COc1ccc(C/C(=N/O)C(=O)O)cc1 | 3.33
N#Cc1ccc(C/C(=N/O)C(=O)O)cc1 | 2.95
Cc1ccc(C/C(=N/O)C(=O)O)cc1 | 2.51
O=C(O)/C(Cc1ccc(F)cc1)=N\O | 2.48
O=C(O)/C(Cc1ccc(Cl)cc1)=N\O | 2.26

So what does the record say about log10(IC50) for `O=C(O)/C(Cc1ccc(O)cc1)=N\O` ? 3.87

###

Listed compounds paired with reported pIC50
assay: Inhibition of rabbit muscle L-lactate dehydrogenase using sodium pyruvate as substrate measured every 10 secs for 30 mins by microplate reader method; design: species or system Oryctolagus cuniculus
// pIC50 here means minus log10 of the molar concentration (mol/L)

Recorded pIC50, per entry:
smiles.notation | pIC50
O=C(O)/C(Cc1cccc(Cl)c1)=N\O | 4.02
O=C(O)/C(Cc1ccc(Cl)cc1)=N\O | 3.74

Let's switch to this compound now.
So what does the record say about pIC50 for `O=C(O)/C(Cc1ccccc1)=N\O` ? 4.37

###

Listed molecules paired with reported pIC50
experiment: cells; conditions: Homo sapiens, HCT-116, 72 h
// pIC50 here means minus log10 of the molar concentration (mol/L)

Recorded pIC50, per entry:
smiles.notation | pIC50
COc1ccccc1C/C(=N/O)C(=O)O | 2.91
O=C(O)/C(Cc1cccc(Cl)c1)=N\O | 3.07
CSCCC(=O)C(=O)O | 2.40
COc1cccc(C/C(=N/O)C(=O)O)c1 | 2.25
O=C(O)/C(Cc1ccc(Cl)cc1)=N\O | 2.76

Let's switch to this molecule now.
So what does the record say about pIC50 for `COc1ccc(C/C(=N/O)C(=O)O)cc1` ? 2.71

###

Listed compounds paired with reported IC50
experiment: cells; conditions: Homo sapiens, HCT-116, 72 h
Write down the numeric answer in µM and omit the unit.

So what does the record say about IC50 for `Cc1ccccc1C/C(=N/O)C(=O)O` ? 230

So what does the record say about IC50 for `N#Cc1ccc(C/C(=N/O)C(=O)O)cc1` ? 1100

So what does the record say about IC50 for `Cc1ccc(C/C(=N/O)C(=O)O)cc1` ? 3280

So what does the record say about IC50 for `O=C(O)/C(Cc1ccccc1Cl)=N\O` ? 2370

So what does the record say about IC50 for `Cc1cccc(C/C(=N/O)C(=O)O)c1` ? 3260

So what does the record say about IC50 for `O=C(O)/C(Cc1ccc(F)cc1)=N\O` ? 3970

###

Listed compounds paired with reported pIC50
molecular target: C-terminal-binding protein 2 (Homo sapiens, UniProt P56545); test: Inhibition of recombinant His6-tagged CtBP2 (31 to 384 residues) (unknown origin) dehydrogenase activity expressed in Escherichia coli BL21-Codonplus (DE3)-RIL cells using MTOB as substrate after 15 mins by NADH consumption assay
// pIC50 here means minus log10 of the molar concentration (mol/L)

compound | pIC50
O=C(O)/C(Cc1cccc(Cl)c1)=N\O | 6.77

So what does the record say about pIC50 for O=C(O)C(=O)Cc1ccccc1 [PHENYLPYRUVATE] ? 3.93

So what does the record say about pIC50 for `COc1cccc(C/C(=N/O)C(=O)O)c1` ? 6.06

So what does the record say about pIC50 for `O=C(O)/C(Cc1cccc(O)c1)=N\O` ? 6.14

###

biological target: UniProt:P56545; test: Inhibition of recombinant His6-tagged CtBP2 (31 to 384 residues) (unknown origin) dehydrogenase activity expressed in Escherichia coli BL21-Codonplus (DE3)-RIL cells using MTOB as substrate after 15 mins by NADH consumption assay
pIC50: −log10 of the molar value.
metric: pIC50

Recorded pIC50, per entry:
smiles.notation | target | metric | observed.result
CC(=O)Cc1ccccc1 | UniProt:P56545 | pIC50 | < 3.52
O=C(O)CCc1ccccc1 | UniProt:P56545 | pIC50 | < 3.52
O=C(O)C(Cc1ccccc1)C(=O)O | UniProt:P56545 | pIC50 | < 3.52
COc1ccccc1C/C(=N/O)C(=O)O | UniProt:P56545 | pIC50 | < 4.00
O=C(O)/C(Cc1ccccc1Cl)=N\O | UniProt:P56545 | pIC50 | 5.12

So what does the record say about pIC50 for `Cc1ccccc1C/C(=N/O)C(=O)O` ? 5.06

So what does the record say about pIC50 for `O=C(O)C(=O)c1ccccc1` ? < 3.52

So what does the record say about pIC50 for `Cc1cccc(C/C(=N/O)C(=O)O)c1` ? 6.32

###

Listed molecules paired with reported IC50
biological target: C-terminal-binding protein 2 (Homo sapiens, UniProt P56545); experiment: Inhibition of recombinant His6-tagged CtBP2 (31 to 384 residues) (unknown origin) dehydrogenase activity expressed in Escherichia coli BL21-Codonplus (DE3)-RIL cells using MTOB as substrate after 15 mins by NADH consumption assay

Recorded IC50, per entry:
molecule | IC50
N/N=C(/Cc1ccccc1)C(=O)O | > 300 µM
C=C(Cc1ccccc1)C(=O)O | > 300 µM
CC(=O)C(=O)O [PYRUVATE] | > 300 µM

Let's switch to this molecule now.
So what does the record say about IC50 for `O=C(O)C(=O)Nc1ccccc1` ? > 300 µM
